Cited source for all entries: ChEMBL document CHEMBL1123878

Kindly state pKa for each of the entries shown.
experiment: Base strength is expressed as pKa, determined in water at 25 degrees Centigrade by spectrophotometric method.; assay type: physicochemical

Answer with the recorded pKa for the compound listed here: CN(C)CCNC(=O)c1ccc2nc3ccccc3cc2c1.Cl.Cl
4.37

Answer with the recorded pKa for the compound listed here: Cc1c2ccccc2nc2c(C(=O)NCCN(C)C)cccc12.Cl.Cl
4.34

Answer with the recorded pKa for the compound listed here: COc1cccc2cc3cccc(C(=O)NCCN(C)C)c3nc12.Cl
3.87

Answer with the recorded pKa for the compound listed here: COc1ccc2nc3c(C(=O)NCCN(C)C)cccc3cc2c1.Cl.Cl
3.54

Answer with the recorded pKa for the compound listed here: COc1cccc2nc3c(C(=O)NCCN(C)C)cccc3cc12.Cl
3.82

---

Kindly state Rm for each of the entries shown.
experiment: Lipophilicity index (Rm) (HPLC); format: physicochemical
Just the number, please.

Answer with the recorded Rm for the compound listed here: CCN(CC)CCNC(=O)c1cccc2cc3ccccc3nc12.Cl.Cl
0.17

Answer with the recorded Rm for the compound listed here: CN(C)CCNC(=O)c1ccc2cc3ccccc3nc2c1.Cl.Cl
-0.53

Answer with the recorded Rm for the compound listed here: Cc1ccc2cc3ccccc3nc2c1C(=O)NCCN(C)C.Cl.Cl
-0.21

Answer with the recorded Rm for the compound listed here: CN(C)CCNC(=O)c1cccc2cc3cccc(Cl)c3nc12.Cl.Cl
-0.21

Answer with the recorded Rm for the compound listed here: CN(C)CCNC(=O)c1cccc2c(N)c3ccccc3nc12
-1.11

Answer with the recorded Rm for the compound listed here: Cc1cc(C(=O)NCCN(C)C)c2nc3ccccc3cc2c1.Cl.Cl
-0.04

Answer with the recorded Rm for the compound listed here: CN(C)CCNC(=O)c1cccc2cc3cc(Cl)ccc3nc12.Cl.Cl
-0.03

Answer with the recorded Rm for the compound listed here: COc1cccc2nc3c(C(=O)NCCN(C)C)cccc3cc12.Cl
-0.12

Answer with the recorded Rm for the compound listed here: COc1ccc2cc3cccc(C(=O)NCCN(C)C)c3nc2c1.Cl.Cl
-0.47

Answer with the recorded Rm for the compound listed here: CN(C)CCCCCCNC(=O)c1cccc2cc3ccccc3nc12.Cl
0.28

Answer with the recorded Rm for the compound listed here: Cc1cccc2cc3cccc(C(=O)NCCN(C)C)c3nc12.Cl.Cl
-0.17

Answer with the recorded Rm for the compound listed here: Cc1c2ccccc2nc2c(C(=O)NCCN(C)C)cccc12.Cl.Cl
-0.33

Answer with the recorded Rm for the compound listed here: Cc1ccc(C(=O)NCCN(C)C)c2nc3ccccc3cc12.Cl.Cl
0.1

Answer with the recorded Rm for the compound listed here: COc1cccc2cc3cccc(C(=O)NCCN(C)C)c3nc12.Cl
-0.31

Answer with the recorded Rm for the compound listed here: Cl.Cl.O=C(NCCNCCO)c1cccc2cc3ccccc3nc12
-0.22

Answer with the recorded Rm for the compound listed here: CNCCNC(=O)c1cccc2cc3ccccc3nc12.Cl.Cl
-0.27

Answer with the recorded Rm for the compound listed here: CN(C)CCNC(=O)c1ccc(Cl)c2cc3ccccc3nc12.Cl.Cl
0.04

Answer with the recorded Rm for the compound listed here: Cc1ccc2cc3cccc(C(=O)NCCN(C)C)c3nc2c1.Cl.Cl
-0.1

Answer with the recorded Rm for the compound listed here: COc1ccc2nc3c(C(=O)NCCN(C)C)cccc3cc2c1.Cl.Cl
-0.22

Answer with the recorded Rm for the compound listed here: CN(C)CCNC(=O)c1ccc2nc3ccccc3cc2c1.Cl.Cl
-0.57

Answer with the recorded Rm for the compound listed here: CN(C)CCNC(=O)c1cccc2cc3ccccc3nc12.Cl.Cl
-0.2

Answer with the recorded Rm for the compound listed here: CN(C)CCCNC(=O)c1cccc2cc3ccccc3nc12.Cl.Cl
-0.1

Answer with the recorded Rm for the compound listed here: COc1cc(C(=O)NCCN(C)C)c2nc3ccccc3cc2c1.Cl.Cl
-0.13

Answer with the recorded Rm for the compound listed here: COc1ccc(C(=O)NCCN(C)C)c2nc3ccccc3cc12.Cl.Cl
-0.13

Answer with the recorded Rm for the compound listed here: CN(C)CCNC(=O)c1cc(Cl)cc2cc3ccccc3nc12.Cl.Cl
0.03

Answer with the recorded Rm for the compound listed here: CN(C)CCNC(=O)c1cccc2cc3c(Cl)cccc3nc12.Cl.Cl.Cl
0.01

Answer with the recorded Rm for the compound listed here: Cl.Cl.NCCNC(=O)c1cccc2cc3ccccc3nc12
-0.28

Answer with the recorded Rm for the compound listed here: CN(C)CCNC(=O)c1cccc2cc3ccc(Cl)cc3nc12.Cl
-0.06

Answer with the recorded Rm for the compound listed here: Cc1cccc2nc3c(C(=O)NCCN(C)C)cccc3cc12.Cl.Cl.O.O
-0.12

Answer with the recorded Rm for the compound listed here: CN(C)CCNC(=O)c1cccc2nc3ccccc3cc12.Cl.Cl
-0.56

Answer with the recorded Rm for the compound listed here: Cc1ccc2nc3c(C(=O)NCCN(C)C)cccc3cc2c1.Cl.Cl
-0.05

Answer with the recorded Rm for the compound listed here: CN(C)CCCCNC(=O)c1cccc2cc3ccccc3nc12.Cl
0.01

Answer with the recorded Rm for the compound listed here: CN(C)CCCCCNC(=O)c1cccc2cc3ccccc3nc12.Cl
0.12
